Reference for the values: patent US7989494B2

# measurementNotes: Sorption-desorption isotherms, VTI humidity balance
# Format: physicochemical
# conditionDetails: Sample RH % 5; in % (unit assumed)
# Description: Sorption-desorption isotherms were recorded by a VTI humidity balance. […]
Structures can show the parent of a compound that is named as a salt.
What Desorption was measured for each of the following?
Give only the figure.

State the recorded Desorption for this entry: Cc1[nH]c2ccccc2c1CCNCc1ccc(/C=C/C(=O)NO)cc1 [Free Base]
4.11

State the recorded Desorption for this entry: Cc1[nH]c2ccccc2c1CCNCc1ccc(/C=C/C(=O)NO)cc1 [Form A of the maleate salt]
−0.02

State the recorded Desorption for this entry: Cc1[nH]c2ccccc2c1CCNCc1ccc(/C=C/C(=O)NO)cc1 [Form A of the mesylate salt]
−0.03

State the recorded Desorption for this entry: Cc1[nH]c2ccccc2c1CCNCc1ccc(/C=C/C(=O)NO)cc1 [Form A of the L-tartarate salt]
−0.09

---

# measurementNotes: Sorption-desorption isotherms, VTI humidity balance
# Assay type: physicochemical
# conditionDetails: Sample RH % 95; 25° C., first sorption cycle
Structures can show the parent of a compound that is named as a salt.
What Sorption was measured for each of the following?
Quick reminder: number only, in %, skip the unit.

State the recorded Sorption for this entry: Cc1[nH]c2ccccc2c1CCNCc1ccc(/C=C/C(=O)NO)cc1 [Form A of the L-tartarate salt]
0.49

State the recorded Sorption for this entry: Cc1[nH]c2ccccc2c1CCNCc1ccc(/C=C/C(=O)NO)cc1 [Free Base]
5.37

State the recorded Sorption for this entry: Cc1[nH]c2ccccc2c1CCNCc1ccc(/C=C/C(=O)NO)cc1 [Form A of the mesylate salt]
0.82

State the recorded Sorption for this entry: Cc1[nH]c2ccccc2c1CCNCc1ccc(/C=C/C(=O)NO)cc1 [Form A of the maleate salt]
0.21

---

# measurementNotes: Sorption-desorption isotherms, VTI humidity balance
# Format: physicochemical
# conditionDetails: Sample RH % 50; in % (unit assumed)
Where a name gives a salt, the structure may show the parent alone.
What Desorption was measured for each of the following?
Give only the figure.

State the recorded Desorption for this entry: Cc1[nH]c2ccccc2c1CCNCc1ccc(/C=C/C(=O)NO)cc1 [Form A of the L-tartarate salt]
0.16

State the recorded Desorption for this entry: Cc1[nH]c2ccccc2c1CCNCc1ccc(/C=C/C(=O)NO)cc1 [Form A of the mesylate salt]
0.16

State the recorded Desorption for this entry: Cc1[nH]c2ccccc2c1CCNCc1ccc(/C=C/C(=O)NO)cc1 [Form A of the maleate salt]
0.10

State the recorded Desorption for this entry: Cc1[nH]c2ccccc2c1CCNCc1ccc(/C=C/C(=O)NO)cc1 [Free Base]
5.21

---

# measurementNotes: Equilibration in solvents and aqueous media, solid form by XRPD
# Type: physicochemical
# conditionDetails: Ethanol
Counter-ions that a name gives are not always drawn.

{"compound": "Cc1[nH]c2ccccc2c1CCNCc1ccc(/C=C/C(=O)NO)cc1 [Form A of the maleate salt]", "XRPD form after equilibration": "No change"}
{"compound": "Cc1[nH]c2ccccc2c1CCNCc1ccc(/C=C/C(=O)NO)cc1 [Form A of the L-tartarate salt]", "XRPD form after equilibration": "No change"}
{"compound": "Cc1[nH]c2ccccc2c1CCNCc1ccc(/C=C/C(=O)NO)cc1 [Form A of the mesylate salt]", "XRPD form after equilibration": "No change"}

---

# measurementNotes: Solubility in organic solvents
# Assay type: physicochemical
# conditionDetails: methanol, organic solvent or mixture; read-out: solubility in methanol
experimentalReadout: solubility

State the recorded solubility for this entry: Cc1[nH]c2ccccc2c1CCNCc1ccc(/C=C/C(=O)NO)cc1 [free base form HA]
~2.3 mg/mL

---

# measurementNotes: Sorption-desorption isotherms, VTI humidity balance
# Format: physicochemical
# conditionDetails: Sample RH % 25; in % (unit assumed)
Where a name gives a salt, the structure may show the parent alone.
What Desorption was measured for each of the following?
Give only the figure.

State the recorded Desorption for this entry: Cc1[nH]c2ccccc2c1CCNCc1ccc(/C=C/C(=O)NO)cc1 [Form A of the maleate salt]
0.05

State the recorded Desorption for this entry: Cc1[nH]c2ccccc2c1CCNCc1ccc(/C=C/C(=O)NO)cc1 [Free Base]
5.11

State the recorded Desorption for this entry: Cc1[nH]c2ccccc2c1CCNCc1ccc(/C=C/C(=O)NO)cc1 [Form A of the mesylate salt]
0.07

State the recorded Desorption for this entry: Cc1[nH]c2ccccc2c1CCNCc1ccc(/C=C/C(=O)NO)cc1 [Form A of the L-tartarate salt]
0.03

---

# measurementNotes: Sorption-desorption isotherms, VTI humidity balance
# Type: physicochemical
# conditionDetails: Sample RH % 5; 25° C., first sorption cycle
Structures can show the parent of a compound that is named as a salt.
experimentalReadout: Sorption

State the recorded Sorption for this entry: Cc1[nH]c2ccccc2c1CCNCc1ccc(/C=C/C(=O)NO)cc1 [Form A of the mesylate salt]
0.03%

State the recorded Sorption for this entry: Cc1[nH]c2ccccc2c1CCNCc1ccc(/C=C/C(=O)NO)cc1 [Form A of the L-tartarate salt]
0.04%

State the recorded Sorption for this entry: Cc1[nH]c2ccccc2c1CCNCc1ccc(/C=C/C(=O)NO)cc1 [Free Base]
0.06%

State the recorded Sorption for this entry: Cc1[nH]c2ccccc2c1CCNCc1ccc(/C=C/C(=O)NO)cc1 [Form A of the maleate salt]
0.02%

---

# measurementNotes: Sorption-desorption isotherms, VTI humidity balance
# Assay type: physicochemical
# conditionDetails: Sample RH % 95; in % (unit assumed)
Structures can show the parent of a compound that is named as a salt.
experimentalReadout: Desorption

State the recorded Desorption for this entry: Cc1[nH]c2ccccc2c1CCNCc1ccc(/C=C/C(=O)NO)cc1 [Free Base]
5.37

State the recorded Desorption for this entry: Cc1[nH]c2ccccc2c1CCNCc1ccc(/C=C/C(=O)NO)cc1 [Form A of the L-tartarate salt]
0.49

State the recorded Desorption for this entry: Cc1[nH]c2ccccc2c1CCNCc1ccc(/C=C/C(=O)NO)cc1 [Form A of the maleate salt]
0.21

State the recorded Desorption for this entry: Cc1[nH]c2ccccc2c1CCNCc1ccc(/C=C/C(=O)NO)cc1 [Form A of the mesylate salt]
0.82

---

# measurementNotes: Solubility in organic solvents
# Format: physicochemical
# conditionDetails: ethyl acetate, organic solvent or mixture; read-out: solubility in ethyl acetate
experimentalReadout: solubility

State the recorded solubility for this entry: Cc1[nH]c2ccccc2c1CCNCc1ccc(/C=C/C(=O)NO)cc1 [free base form HA]
~5600 µg/mL

---

What Sorption was measured for each of the following?
# measurementNotes: Sorption-desorption isotherms, VTI humidity balance
# Format: physicochemical
# conditionDetails: Sample RH % 85; 25° C., first sorption cycle
# Protocol: Sorption-desorption isotherms were recorded by a VTI humidity balance. […]
Counter-ions that a name gives are not always drawn.
Quick reminder: number only, in %, skip the unit.

State the recorded Sorption for this entry: Cc1[nH]c2ccccc2c1CCNCc1ccc(/C=C/C(=O)NO)cc1 [Form A of the mesylate salt]
0.31

State the recorded Sorption for this entry: Cc1[nH]c2ccccc2c1CCNCc1ccc(/C=C/C(=O)NO)cc1 [Form A of the L-tartarate salt]
0.35

State the recorded Sorption for this entry: Cc1[nH]c2ccccc2c1CCNCc1ccc(/C=C/C(=O)NO)cc1 [Form A of the maleate salt]
0.17

State the recorded Sorption for this entry: Cc1[nH]c2ccccc2c1CCNCc1ccc(/C=C/C(=O)NO)cc1 [Free Base]
5.24

---

# measurementNotes: Sorption-desorption isotherms, VTI humidity balance
# Format: physicochemical
# conditionDetails: Sample RH % 75; 25° C., first sorption cycle
Where a name gives a salt, the structure may show the parent alone.
experimentalReadout: Sorption (%)
Quick reminder: number only, in %, skip the unit.

State the recorded Sorption for this entry: Cc1[nH]c2ccccc2c1CCNCc1ccc(/C=C/C(=O)NO)cc1 [Form A of the L-tartarate salt]
0.31

State the recorded Sorption for this entry: Cc1[nH]c2ccccc2c1CCNCc1ccc(/C=C/C(=O)NO)cc1 [Form A of the maleate salt]
0.16

State the recorded Sorption for this entry: Cc1[nH]c2ccccc2c1CCNCc1ccc(/C=C/C(=O)NO)cc1 [Free Base]
5.22

State the recorded Sorption for this entry: Cc1[nH]c2ccccc2c1CCNCc1ccc(/C=C/C(=O)NO)cc1 [Form A of the mesylate salt]
0.23

---

# measurementNotes: Aqueous solubility
# Format: physicochemical
# conditionDetails: water
Where a name gives a salt, the structure may show the parent alone.
experimentalReadout: aqueous solubility

State the recorded aqueous solubility for this entry: Cc1[nH]c2ccccc2c1CCNCc1ccc(/C=C/C(=O)NO)cc1 [Form A of the acetate salt]
~2000 µg/mL

State the recorded aqueous solubility for this entry: Cc1[nH]c2ccccc2c1CCNCc1ccc(/C=C/C(=O)NO)cc1 [Form A of the maleate salt]
2600 µg/mL

State the recorded aqueous solubility for this entry: Cc1[nH]c2ccccc2c1CCNCc1ccc(/C=C/C(=O)NO)cc1 [Form A of the mesylate salt]
12900 µg/mL

State the recorded aqueous solubility for this entry: Cc1[nH]c2ccccc2c1CCNCc1ccc(/C=C/C(=O)NO)cc1 [Form A of the hemi-malate salt]
~1400 µg/mL

State the recorded aqueous solubility for this entry: Cc1[nH]c2ccccc2c1CCNCc1ccc(/C=C/C(=O)NO)cc1 [Form A of the hemi-fumarate salt]
~400 µg/mL

State the recorded aqueous solubility for this entry: Cc1[nH]c2ccccc2c1CCNCc1ccc(/C=C/C(=O)NO)cc1 [Form A of the hemi-succinate salt]
~400 µg/mL

State the recorded aqueous solubility for this entry: Cc1[nH]c2ccccc2c1CCNCc1ccc(/C=C/C(=O)NO)cc1 [Form A of the L-tartarate salt]
3500 µg/mL

State the recorded aqueous solubility for this entry: Cc1[nH]c2ccccc2c1CCNCc1ccc(/C=C/C(=O)NO)cc1 [Form A of the phosphate salt]
~6000 µg/mL

State the recorded aqueous solubility for this entry: Cc1[nH]c2ccccc2c1CCNCc1ccc(/C=C/C(=O)NO)cc1 [Form A of the benzoate salt]
~700 µg/mL

State the recorded aqueous solubility for this entry: Cc1[nH]c2ccccc2c1CCNCc1ccc(/C=C/C(=O)NO)cc1 [Form A of the propionate salt]
~4000 µg/mL
